Assay: Stability of compounds in mouse blood plasma
Type: in vitro ADME
Square brackets hold non-standard residues; d marks the D form. Peptide text beside a SMILES is read from it. * marks the point of attachment. Gly(1-amidinopiperidin-4-yl) = N=C(N)N1CCC([C@H](N)C(=O)O)CC1; N(Me)CH2CH2Ph = CN(CCc1ccccc1)*; Tic = O=C(O)[C@@H]1Cc2ccccc2CN1; Cha = N[C@@H](CC1CCCCC1)C(=O)O; NMe(benzyl) = CN(Cc1ccccc1)*; Nle = CCCC[C@H](N)C(=O)O; X2 = OCCOCCN(Cc1ccccc1)*; NHBn = c1ccc(CN*)cc1
Is Stability (Arbitrary units) Mouse 6 h at least 100 Arbitrary units? Then Criterion met. If not, Criterion not met.

1) CCCC[C@H](NC(=O)[C@@H]1Cc2ccccc2CN1C(=O)[C@@H](NC(=O)[C@H](CC1CCCCC1)NC(C)=O)C1CCN(C(=N)N)CC1)C(=O)NCc1ccccc1 [Compound P68, Ac-Cha-Gpg-Tic-Nle-N(H)Bn] (Ac-[Cha][Gly(1-amidinopiperidin-4-yl)][Tic][Nle]-NHBn) :: Criterion not met
2) CCCC[C@H](NC(=O)C1c2ccccc2CN1C(=O)[C@@H](NC(=O)[C@H](CC1CCCCC1)NC(C)=O)C1CCN(C(=N)N)CC1)C(=O)N(C)Cc1ccccc1 (single isomer, unassigned) [Compound P76-1, Ac-Cha-Gpg-Disc-Nle-N(Me)Bn] :: Criterion not met
3) CSCC[C@H](NC(=O)[C@@H]1Cc2ccccc2CN1C(=O)[C@@H](NC(=O)[C@H](CC1CCCCC1)NC(C)=O)C1CCN(C(=N)N)CC1)C(N)=O [Compound P67, Ac-Cha-Gpg-Tic-Met-NH2] (Ac-[Cha][Gly(1-amidinopiperidin-4-yl)][Tic]M-NH2) :: Criterion not met
4) CCCC[C@H](NC(=O)[C@@H]1Cc2ccccc2CN1C(=O)[C@@H](NC(=O)[C@H](CC1CCCCC1)NC(C)=O)C1CCN(C(=N)N)CC1)C(=O)N(CCOCCO)Cc1ccccc1 [Compound P101, Ac-Cha-Gpg-Tic-Nle-N(Bn)CH2CH2OCH2CH2OH] (Ac-[Cha][Gly(1-amidinopiperidin-4-yl)][Tic][Nle]-X2) :: Criterion met
5) CCCC[C@H](NC(=O)[C@@H]1Cc2ccccc2CN1C(=O)[C@H](CCCNC(=N)N)NC(=O)[C@H](CC1CCCCC1)NC(C)=O)C(=O)N(C)Cc1ccccc1 [Compound P71, Ac-Cha-Arg-Tic-Nle-N(Me)Bn] (Ac-[Cha]R[Tic][Nle]-{NMe(benzyl)}) :: Criterion met
6) CCCC[C@H](NC(=O)[C@@H]1Cc2ccccc2CN1C(=O)[C@H](CCCNC(=N)N)NC(=O)[C@H](CC1CCCCC1)NC(C)=O)C(=O)N(C)CCc1ccccc1 [Compound P83, Ac-Cha-Arg-Tic-Nle-N(Me)CH2CH2Ph] (Ac-[Cha]R[Tic][Nle]-{N(Me)CH2CH2Ph}) :: Criterion not met
